// provenance: the supplement of paper PMC4466140

Biological target: ScSla1-D1-D2
Experiment: SPOT peptide array binding signal intensity (averaged, normalized) (arbitrary units (background-subtracted, floor 0; scale differs between SH3 domains)); higher = stronger binding of the SH3 domain to the peptide
Answer Not fulfilled if SPOT peptide array binding signal intensity is under 500, and Fulfilled if it is 500 or more.

Evaluate YRRKSIPFAPHQITA : SPOT peptide array binding signal intensity at minimum 500?
Not fulfilled

Evaluate APPPPPRRATPEKKP : SPOT peptide array binding signal intensity at minimum 500?
Not fulfilled

Evaluate ANNQGPPNLPARDKS : SPOT peptide array binding signal intensity at minimum 500?
Not fulfilled

Evaluate HGKRRAPLLLAKLDV : SPOT peptide array binding signal intensity at minimum 500?
Not fulfilled

Evaluate EEEEEHPPLPARRKS : SPOT peptide array binding signal intensity at minimum 500?
Not fulfilled

More entries:
Evaluate RVTRKRPREPKSTND : SPOT peptide array binding signal intensity at minimum 500?
Fulfilled

Evaluate PLQSKIPMLPSRRTM : SPOT peptide array binding signal intensity at minimum 500?
Fulfilled
